B1: library; a variant is named by its letters at N, in order (parent)
chain: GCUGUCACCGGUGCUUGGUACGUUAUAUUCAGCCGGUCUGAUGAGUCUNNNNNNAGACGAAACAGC

Variants of: B1
Assay protocol: normalized RNA/DNA level without ligand (relative to sTRSVctl = 100) (log10 (% of sTRSVctl)); HEK293T overexpressing SLC46A1; higher = less ribozyme self-cleavage, higher mRNA level
Measurement parameters: without (6R,S)-folinic acid; ligand present: no
Everything with normalized RNA/DNA level without ligand (log10) lower than 2 is Not met; everything else, including exactly 2, is Met.

>>> qualitative_label("GCUGUCACCGGUGCUUGGUACGUUAUAUUCAGCCGGUCUGAUGAGUCUUUAUGUAGACGAAACAGC [UUAUGU]")
"Not met"
>>> qualitative_label("GCUGUCACCGGUGCUUGGUACGUUAUAUUCAGCCGGUCUGAUGAGUCUCGGCCUAGACGAAACAGC [CGGCCU]")
"Met"
>>> qualitative_label("GCUGUCACCGGUGCUUGGUACGUUAUAUUCAGCCGGUCUGAUGAGUCUCGACCUAGACGAAACAGC [CGACCU]")
"Met"
>>> qualitative_label("GCUGUCACCGGUGCUUGGUACGUUAUAUUCAGCCGGUCUGAUGAGUCUUAGCAGAGACGAAACAGC [UAGCAG]")
"Not met"
>>> qualitative_label("GCUGUCACCGGUGCUUGGUACGUUAUAUUCAGCCGGUCUGAUGAGUCUCCCUUGAGACGAAACAGC [CCCUUG]")
"Met"
>>> qualitative_label("GCUGUCACCGGUGCUUGGUACGUUAUAUUCAGCCGGUCUGAUGAGUCUCGGCAAAGACGAAACAGC [CGGCAA]")
"Met"
>>> qualitative_label("GCUGUCACCGGUGCUUGGUACGUUAUAUUCAGCCGGUCUGAUGAGUCUUGAUAAAGACGAAACAGC [UGAUAA]")
"Not met"
>>> qualitative_label("GCUGUCACCGGUGCUUGGUACGUUAUAUUCAGCCGGUCUGAUGAGUCUGGCGCAAGACGAAACAGC [GGCGCA]")
"Met"
>>> qualitative_label("GCUGUCACCGGUGCUUGGUACGUUAUAUUCAGCCGGUCUGAUGAGUCUAAGAGAAGACGAAACAGC [AAGAGA]")
"Not met"
